Molecular target: Voltage-gated potassium channel subunit beta-2 (Rattus norvegicus) (UniProt P62483)
Sequence (P62483 whole entry, looked up): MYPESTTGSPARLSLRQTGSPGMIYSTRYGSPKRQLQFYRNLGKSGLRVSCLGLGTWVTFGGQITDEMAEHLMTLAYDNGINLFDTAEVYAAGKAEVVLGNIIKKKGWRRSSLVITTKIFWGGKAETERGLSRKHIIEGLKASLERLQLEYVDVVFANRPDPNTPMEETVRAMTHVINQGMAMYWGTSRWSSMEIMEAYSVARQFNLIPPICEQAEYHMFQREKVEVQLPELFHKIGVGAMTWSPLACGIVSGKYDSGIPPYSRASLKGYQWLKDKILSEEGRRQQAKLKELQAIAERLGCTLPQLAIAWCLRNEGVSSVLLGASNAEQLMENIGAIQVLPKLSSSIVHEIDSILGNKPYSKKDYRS
Test: enhancers of rat Kvbeta2 NADPH turnover – biochemical, NADPH fluorescence, primary screen (AID 623);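 also: fluorescence intensity change per second fitted from 20 to 320 s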
Conditions: Recombinant KvBeta, NADPH fluorescence decrease slope, 10 min; at 10 µM; active compounds read low

{"Compound": "COc1cccc(C2CC(c3ccc(F)cc3)Nc3nc(N)nn32)c1 (configuration not stated)", "Test system": "Voltage-gated potassium channel subunit beta-2 (Rattus norvegicus) (UniProt P62483)", "NADPH fluorescence slope": "2.1e-05"}
{"Compound": "CCOc1ccc(NC(=O)CSc2nc3cccnc3n2CC)cc1", "Test system": "Voltage-gated potassium channel subunit beta-2 (Rattus norvegicus) (UniProt P62483)", "NADPH fluorescence slope": "-2.4e-05"}
{"Compound": "C=CCSC1=C(C#N)C(c2ccccc2Cl)CC(=O)N1 (configuration not stated)", "Test system": "Voltage-gated potassium channel subunit beta-2 (Rattus norvegicus) (UniProt P62483)", "NADPH fluorescence slope": "5.8e-06"}
{"Compound": "COCCNC(=O)C(c1ccc(C)o1)N(Cc1ccc(OC)cc1)C(=O)Cn1nnc2ccccc21 (configuration not stated)", "Test system": "Voltage-gated potassium channel subunit beta-2 (Rattus norvegicus) (UniProt P62483)", "NADPH fluorescence slope": "-1.9e-05"}
{"Compound": "Cn1nnnc1SCC(=O)N1CCN(c2cccc(Cl)c2)CC1", "Test system": "Voltage-gated potassium channel subunit beta-2 (Rattus norvegicus) (UniProt P62483)", "NADPH fluorescence slope": "-2.9e-06"}
{"Compound": "COCc1[nH]nc2c1C(c1cc(OC)c(O)c(OC)c1)C(C#N)=C(N)O2 (configuration not stated)", "Test system": "Voltage-gated potassium channel subunit beta-2 (Rattus norvegicus) (UniProt P62483)", "NADPH fluorescence slope": "-4.1e-05"}
{"Compound": "CCCSc1nc(N)c(C#N)c(-c2ccc(C)cc2)c1C#N", "Test system": "Voltage-gated potassium channel subunit beta-2 (Rattus norvegicus) (UniProt P62483)", "NADPH fluorescence slope": "-6.2e-05"}
{"Compound": "C=CCn1c(-c2cccs2)nc2nc3ccccc3nc21", "Test system": "Voltage-gated potassium channel subunit beta-2 (Rattus norvegicus) (UniProt P62483)", "NADPH fluorescence slope": "4.4e-06"}
{"Compound": "CCOC(=O)C1CCCN(C(=O)c2cn(C)c(=O)c3cc(OC)c(OC)cc23)C1 (configuration not stated)", "Test system": "Voltage-gated potassium channel subunit beta-2 (Rattus norvegicus) (UniProt P62483)", "NADPH fluorescence slope": "-1e-06"}
{"Compound": "CCOc1ccc(Oc2nc(Nc3ccc(C)cc3)nc(N(C)C)n2)nn1", "Test system": "Voltage-gated potassium channel subunit beta-2 (Rattus norvegicus) (UniProt P62483)", "NADPH fluorescence slope": "-4.9e-05"}
{"Compound": "CCCCc1n[nH]c2c1C(=O)CC(C)(C)C2", "Test system": "Voltage-gated potassium channel subunit beta-2 (Rattus norvegicus) (UniProt P62483)", "NADPH fluorescence slope": "-4.7e-05"}
{"Compound": "COc1cc(NC(=O)C(C)Oc2ccccc2)c(C(=O)O)cc1OC (configuration not stated)", "Test system": "Voltage-gated potassium channel subunit beta-2 (Rattus norvegicus) (UniProt P62483)", "NADPH fluorescence slope": "-2.5e-05"}
{"Compound": "Cc1c(Cl)cccc1N1C(=O)c2ccccc2C1=O", "Test system": "Voltage-gated potassium channel subunit beta-2 (Rattus norvegicus) (UniProt P62483)", "NADPH fluorescence slope": "-3.6e-05"}
{"Compound": "CC1CCC(NC(=O)Cn2ncc3ccccc32)CC1 (configuration not stated)", "Test system": "Voltage-gated potassium channel subunit beta-2 (Rattus norvegicus) (UniProt P62483)", "NADPH fluorescence slope": "-4.8e-05"}
{"Compound": "O=C(NCc1cccs1)C1CCN(S(=O)(=O)c2cccs2)CC1", "Test system": "Voltage-gated potassium channel subunit beta-2 (Rattus norvegicus) (UniProt P62483)", "NADPH fluorescence slope": "-1.4e-05"}
{"Compound": "CC(Sc1nc(-c2ccccc2)cc(C(F)(F)F)n1)C(=O)N1CCCC1 (configuration not stated)", "Test system": "Voltage-gated potassium channel subunit beta-2 (Rattus norvegicus) (UniProt P62483)", "NADPH fluorescence slope": "3.3e-05"}
{"Compound": "CCOC(=O)c1cnn(-c2cc(C)nc3c(-c4ccccc4)c(C)nn23)c1N", "Test system": "Voltage-gated potassium channel subunit beta-2 (Rattus norvegicus) (UniProt P62483)", "NADPH fluorescence slope": "-3.2e-05"}
{"Compound": "CCOC(=O)c1cc2c(=O)n3ccccc3nc2n(CCCOC)c1=NC(C)=O", "Test system": "Voltage-gated potassium channel subunit beta-2 (Rattus norvegicus) (UniProt P62483)", "NADPH fluorescence slope": "1.2e-05"}
{"Compound": "O=C(CCn1c(=S)[nH]c2cc3c(cc2c1=O)OCO3)N1CCN(C2CCCCC2)CC1", "Test system": "Voltage-gated potassium channel subunit beta-2 (Rattus norvegicus) (UniProt P62483)", "NADPH fluorescence slope": "-9.8e-07"}
{"Compound": "COc1ccc(CNc2ccc(C(=O)O)cc2)cc1", "Test system": "Voltage-gated potassium channel subunit beta-2 (Rattus norvegicus) (UniProt P62483)", "NADPH fluorescence slope": "-3.9e-05"}
{"Compound": "COc1ccccc1NC(=O)C1=C(C)Nc2nnnn2C1c1ccccc1OC (configuration not stated)", "Test system": "Voltage-gated potassium channel subunit beta-2 (Rattus norvegicus) (UniProt P62483)", "NADPH fluorescence slope": "7.3e-06"}
{"Compound": "CC(=O)N1CCN(Cc2ccc(Br)s2)CC1", "Test system": "Voltage-gated potassium channel subunit beta-2 (Rattus norvegicus) (UniProt P62483)", "NADPH fluorescence slope": "-1.9e-05"}
{"Compound": "CC(=O)C1=C(C)Nc2ncnn2C1c1cccc(OCc2ccccc2)c1 (configuration not stated)", "Test system": "Voltage-gated potassium channel subunit beta-2 (Rattus norvegicus) (UniProt P62483)", "NADPH fluorescence slope": "4.9e-06"}
{"Compound": "O=C(NCc1ccc(F)cc1)c1cc2ccccn2n1", "Test system": "Voltage-gated potassium channel subunit beta-2 (Rattus norvegicus) (UniProt P62483)", "NADPH fluorescence slope": "-3.6e-05"}
{"Compound": "O=S(=O)(NCc1cn2ccccc2n1)c1cc(F)ccc1F", "Test system": "Voltage-gated potassium channel subunit beta-2 (Rattus norvegicus) (UniProt P62483)", "NADPH fluorescence slope": "-5.3e-05"}
{"Compound": "Cn1c(=O)c2c(nc3sccn32)n(C)c1=O", "Test system": "Voltage-gated potassium channel subunit beta-2 (Rattus norvegicus) (UniProt P62483)", "NADPH fluorescence slope": "7.5e-05"}
{"Compound": "O=S(=O)(c1cccc2nsnc12)N1CCN(c2ncccn2)CC1", "Test system": "Voltage-gated potassium channel subunit beta-2 (Rattus norvegicus) (UniProt P62483)", "NADPH fluorescence slope": "-4.2e-05"}
{"Compound": "Cc1ccc2nc(NCCCN3CCOCC3)c(C=NCCCN3CCOCC3)c(=O)n2c1", "Test system": "Voltage-gated potassium channel subunit beta-2 (Rattus norvegicus) (UniProt P62483)", "NADPH fluorescence slope": "-5.9e-05"}
{"Compound": "CCc1cc(=O)n2[nH]c(C)c(-c3ccccc3OC)c2n1", "Test system": "Voltage-gated potassium channel subunit beta-2 (Rattus norvegicus) (UniProt P62483)", "NADPH fluorescence slope": "-2.9e-05"}
{"Compound": "c1ccc(-c2nnc(CSc3nncs3)o2)cc1", "Test system": "Voltage-gated potassium channel subunit beta-2 (Rattus norvegicus) (UniProt P62483)", "NADPH fluorescence slope": "-2e-05"}
{"Compound": "O=C(CSc1nc2ccccc2o1)Nc1ccccc1", "Test system": "Voltage-gated potassium channel subunit beta-2 (Rattus norvegicus) (UniProt P62483)", "NADPH fluorescence slope": "-8e-06"}
{"Compound": "CCOC(=O)c1cc2sc(C)cc2n1CC(=O)NCc1ccc(F)cc1", "Test system": "Voltage-gated potassium channel subunit beta-2 (Rattus norvegicus) (UniProt P62483)", "NADPH fluorescence slope": "-4.5e-05"}
{"Compound": "CCCNC(=O)NC1C(NC(=O)NCCC)N(C)C(=O)N1C (configuration not stated)", "Test system": "Voltage-gated potassium channel subunit beta-2 (Rattus norvegicus) (UniProt P62483)", "NADPH fluorescence slope": "2.5e-05"}
{"Compound": "CCn1c(C)c(CCC(=O)O)c(=O)n2nc(-c3ccccc3OC)cc12", "Test system": "Voltage-gated potassium channel subunit beta-2 (Rattus norvegicus) (UniProt P62483)", "NADPH fluorescence slope": "-1.2e-05"}
{"Compound": "Nn1c(SCC(=O)Nc2ccc3c(c2)OCO3)nnc1C1CC1", "Test system": "Voltage-gated potassium channel subunit beta-2 (Rattus norvegicus) (UniProt P62483)", "NADPH fluorescence slope": "-5.7e-05"}
{"Compound": "Cc1cc(Nc2ccccc2N2CCOCC2)n2ncnc2n1", "Test system": "Voltage-gated potassium channel subunit beta-2 (Rattus norvegicus) (UniProt P62483)", "NADPH fluorescence slope": "7.3e-06"}
{"Compound": "COc1ccc(Nc2ncnc3c2cnn3-c2ccccc2)cc1OC", "Test system": "Voltage-gated potassium channel subunit beta-2 (Rattus norvegicus) (UniProt P62483)", "NADPH fluorescence slope": "1.2e-05"}
{"Compound": "COc1cc(NC(=O)Nc2cccc(Cl)c2)c(OC)cc1NC(=O)CN1CCCCC1", "Test system": "Voltage-gated potassium channel subunit beta-2 (Rattus norvegicus) (UniProt P62483)", "NADPH fluorescence slope": "-4e-05"}
{"Compound": "COc1ccc(NC(=O)C2CCCN2S(=O)(=O)c2cccc3cccnc23)c(OC)c1 (configuration not stated)", "Test system": "Voltage-gated potassium channel subunit beta-2 (Rattus norvegicus) (UniProt P62483)", "NADPH fluorescence slope": "2.3e-06"}
{"Compound": "CCN(CC)c1ccc2cc(-c3nc4ccccc4[nH]3)c(=O)oc2c1", "Test system": "Voltage-gated potassium channel subunit beta-2 (Rattus norvegicus) (UniProt P62483)", "NADPH fluorescence slope": "4.5e-05"}
{"Compound": "COc1ccc(-n2ccnc2SCC(=O)NCc2ccc3c(c2)OCO3)cc1", "Test system": "Voltage-gated potassium channel subunit beta-2 (Rattus norvegicus) (UniProt P62483)", "NADPH fluorescence slope": "-2.8e-06"}
{"Compound": "CCOC(=O)c1ccc(NS(=O)(=O)c2ccc3c(c2)CCCN3C(C)=O)cc1", "Test system": "Voltage-gated potassium channel subunit beta-2 (Rattus norvegicus) (UniProt P62483)", "NADPH fluorescence slope": "8.9e-06"}
{"Compound": "CCOC(=O)c1cc(C(C)(C)C)oc1CN", "Test system": "Voltage-gated potassium channel subunit beta-2 (Rattus norvegicus) (UniProt P62483)", "NADPH fluorescence slope": "-4.4e-05"}
{"Compound": "CC(=O)Nc1ccc(S(=O)(=O)NCC2CCC(C(=O)NCCCN3CCCC3=O)CC2)cc1 (configuration not stated)", "Test system": "Voltage-gated potassium channel subunit beta-2 (Rattus norvegicus) (UniProt P62483)", "NADPH fluorescence slope": "-3.3e-05"}
{"Compound": "Cn1nnnc1SCc1cn2cccnc2n1", "Test system": "Voltage-gated potassium channel subunit beta-2 (Rattus norvegicus) (UniProt P62483)", "NADPH fluorescence slope": "2.9e-05"}
{"Compound": "FC(F)(F)c1cc(-c2ccco2)nc(NCc2ccco2)n1", "Test system": "Voltage-gated potassium channel subunit beta-2 (Rattus norvegicus) (UniProt P62483)", "NADPH fluorescence slope": "-3e-05"}
{"Compound": "Cc1ccc(N=Cc2ccc[nH]2)c(O)c1", "Test system": "Voltage-gated potassium channel subunit beta-2 (Rattus norvegicus) (UniProt P62483)", "NADPH fluorescence slope": "-2.1e-06"}
